- targetUnderTest: human cloned 5-HT6 receptors (Homo sapiens)
- Construct: expressed in transfected cells; host or cells: Hela cells
- methodDescription: 5-HT6 binding affinity, [3H]-LSD displacement in membranes of Hela cells
- conditionLabel: test compound dose 100 nM; [3H]-LSD 3.0 nM
Tag: Satisfied if measured inhibition at 0.1 µM is not below 80%, Not satisfied if it is.

Example results:
[[record]]
smilesrepresentation = "CC(=NNC(=N)N)c1cn(S(=O)(=O)c2ccc(N)cc2)c2ccccc12"
assignedcategory = "Satisfied"

[[record]]
smilesrepresentation = "COc1ccc(S(=O)(=O)n2cc(C(=NNC(=N)N)C3CC3)c3ccccc32)cc1"
assignedcategory = "Not satisfied"

[[record]]
smilesrepresentation = "CCCCS(=O)(=O)n1cc(C(C)=NNC(=N)N)c2cc(Cl)ccc21"
assignedcategory = "Satisfied"

[[record]]
smilesrepresentation = "CC(=NNC(=N)N)c1cn(S(C)(=O)=O)c2cc(F)ccc12"
assignedcategory = "Satisfied"

[[record]]
smilesrepresentation = "CC(=NNC(=N)N)c1cn(S(=O)(=O)c2ccc(S(C)(=O)=O)cc2)c2ccccc12"
assignedcategory = "Not satisfied"

[[record]]
smilesrepresentation = "CCCCC(=NNC(=N)N)c1cn(S(=O)(=O)c2ccccc2)c2ccccc12"
assignedcategory = "Not satisfied"


Hi, just wondering whether CC(=NNC(=N)N)c1cn(S(=O)(=O)c2c(Cl)nc3sccn23)c2ccccc12 shows inhibition at 0.1 µM of 80% or higher.
Satisfied

###

- targetUnderTest: human cloned 5-HT6 receptors (Homo sapiens, UniProt P50406)
- Construct: expressed in transfected cells; host or cells: Hela cells
- Sequence (P50406 whole entry): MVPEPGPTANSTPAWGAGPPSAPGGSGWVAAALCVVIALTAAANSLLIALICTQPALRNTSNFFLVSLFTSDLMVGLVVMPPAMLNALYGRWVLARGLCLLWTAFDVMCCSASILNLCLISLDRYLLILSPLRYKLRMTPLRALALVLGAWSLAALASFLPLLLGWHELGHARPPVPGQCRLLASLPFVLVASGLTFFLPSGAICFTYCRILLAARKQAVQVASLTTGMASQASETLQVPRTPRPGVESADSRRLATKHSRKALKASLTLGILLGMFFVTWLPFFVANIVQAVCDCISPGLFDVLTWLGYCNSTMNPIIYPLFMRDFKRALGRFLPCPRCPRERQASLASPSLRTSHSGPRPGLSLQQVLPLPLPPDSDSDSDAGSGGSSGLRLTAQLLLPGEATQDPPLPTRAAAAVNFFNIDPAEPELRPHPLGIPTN
- methodDescription: 5-HT6 binding affinity, [3H]-LSD displacement in membranes of Hela cells
- conditionLabel: test compound dose 1000 nM; [3H]-LSD 3.0 nM; read-out: % Inhibition
metric: inhibition at 1 µM (%)
Give a bare numeral; the unit % is implied.

[[record]]
smilesrepresentation = "CCCCC(=NNC(=N)N)c1cn(S(C)(=O)=O)c2ccc(Cl)cc12"
measuredresult = 71

[[record]]
smilesrepresentation = "CCCCC(=NNC(=N)N)c1cn(S(=O)(=O)CCCC)c2ccccc12"
measuredresult = 77.7

[[record]]
smilesrepresentation = "CCCCC(=NNC(=N)N)c1cn(S(=O)(=O)c2ccc(OC)c(OC)c2)c2cc(F)ccc12"
measuredresult = 73.5

[[record]]
smilesrepresentation = "CCCCC(=NNC(=N)N)c1cn(S(=O)(=O)c2ccc3ccccc3c2)c2ccccc12"
measuredresult = 62.3


// next item, inhibition at 1 µM requested
// compound CCCCC(=NNC(=N)N)c1cn(S(=O)(=O)CCCC)c2cc(F)ccc12 , assay human cloned 5-HT6 receptors (Homo sapiens, UniProt P50406), inhibition at 1 µM value: 81.3

###

- targetUnderTest: human cloned 5-HT6 receptors (Homo sapiens)
- Construct: expressed in transfected cells; host or cells: Hela cells
- methodDescription: 5-HT6 binding affinity, [3H]-LSD displacement in membranes of Hela cells
- conditionLabel: test compound dose 100 nM; [3H]-LSD 3.0 nM
Tag: condition met if measured inhibition at 0.1 µM is not below 60%, condition not met if it is.

Example results:
[[record]]
smilesrepresentation = "CC(=NNC(=N)N)c1cn(C(=O)Nc2ccccc2)c2ccccc12"
assignedcategory = "condition not met"

[[record]]
smilesrepresentation = "CC(=NNC(=N)N)c1cn(S(=O)(=O)c2c(Cl)sc(Cl)c2Br)c2ccccc12"
assignedcategory = "condition not met"


Now turn to the next molecule.
Hi, just wondering whether CC(=NNC(=N)N)c1cn(S(=O)(=O)c2ccc(Cl)s2)c2ccccc12 shows inhibition at 0.1 µM of 60% or higher.
condition met

###

- targetUnderTest: human cloned 5-HT6 receptors (Homo sapiens, UniProt P50406)
- Construct: expressed in transfected cells; host or cells: Hela cells
- methodDescription: 5-HT6 binding affinity, [3H]-LSD displacement in membranes of Hela cells
- conditionLabel: test compound dose 1000 nM; [3H]-LSD 3.0 nM; read-out: % Inhibition
Response field class: enum, chosen by comparing inhibition at 1 µM against Low (below 70%), Mid (70% to below 90%), High (90% or more)

Example results:
[[record]]
compound = "CCCCC(=NNC(=N)N)c1cn(S(=O)(=O)c2ccc(OC)cc2)c2ccc(Cl)cc12 [Example 79]"
assignedcategory = "Low"

[[record]]
compound = "N=C(N)N/N=C(\\C=C\\c1ccccc1Cl)c1cn(S(=O)(=O)c2ccccc2)c2ccccc12 [Example 8]"
assignedcategory = "High"


Into which category would you place Cc1ccc(S(=O)(=O)n2cc(C=NNC3=NCCCN3)c3ccccc32)cc1 [Example 1] ?
Low

Into which category would you place CCCCC(=NNC(=N)N)c1cn(S(=O)(=O)c2ccc3ccccc3c2)c2cc(F)ccc12 [Example 110] ?
Low

Into which category would you place CC(=NNC(=N)N)c1c(-c2ccc3ccccc3c2)n(S(=O)(=O)c2ccccc2)c2ccccc12 [Example 14] ?
Mid

Into which category would you place CC(=NNC(=N)N)c1c(-c2ccc(F)c(F)c2)n(S(=O)(=O)c2ccccc2)c2ccccc12 [Example 13] ?
Mid

Into which category would you place CC(=NNC(=N)N)c1c(-c2ccc(F)c(Cl)c2)n(S(=O)(=O)c2ccccc2)c2ccccc12 [Example 12] ?
Mid

Into which category would you place COc1ccc(S(=O)(=O)n2cc(C(C)=NNC(=N)N)c3ccc(F)cc32)cc1 [Example 106] ?
Low

Into which category would you place COc1ccc(S(=O)(=O)n2cc(C(C)=NNC(=N)N)c3cc(Cl)ccc32)cc1 [Example 78] ?
Mid

Into which category would you place CCCCC(=NNC(=N)N)c1cn(S(=O)(=O)CCCC)c2ccc(Cl)cc12 [Example 76] ?
Mid

Into which category would you place CCCCC(=NNC(=N)N)c1c(-c2ccc(Cl)cc2)n(S(C)(=O)=O)c2ccccc12 [Example 91] ?
Low

Into which category would you place CC(=NNC(=N)N)c1cn(S(=O)(=O)c2ccccc2)c2ccccc12 [Example 9] ?
High

Into which category would you place CC(=NNC(=N)N)c1cn(S(=O)(=O)c2ccc3ccccc3c2)c2cc(F)ccc12 [Example 109] ?
Low

###

Parameter: inhibition at 1 µM. Scope: all listed entries.
- targetUnderTest: human cloned 5-HT6 receptors (Homo sapiens, UniProt P50406)
- Construct: expressed in transfected cells; host or cells: Hela cells
- methodDescription: 5-HT6 binding affinity, [3H]-LSD displacement in membranes of Hela cells
- conditionLabel: test compound dose 1000 nM; [3H]-LSD 3.0 nM; read-out: % Inhibition
Give a bare numeral; the unit % is implied.

The following molecules have reported results that may help.
[[record]]
molecule = "CCCCC(=NNC(=N)N)c1c(-c2ccc(Cl)cc2)n(S(=O)(=O)c2ccccc2)c2ccccc12 [Example 96]"
measuredresult = 20

[[record]]
molecule = "CC(=NNC(=N)N)c1cn(S(=O)(=O)c2ccccc2)c2cc(F)ccc12 [Example 112]"
measuredresult = 94.6

[[record]]
molecule = "CCCCC(=NNC(=N)N)c1cn(S(C)(=O)=O)c2ccccc12 [Example 56]"
measuredresult = 76.9

[[record]]
molecule = "CC(=NNC(=N)N)c1c(-c2ccc(Cl)cc2)n(S(C)(=O)=O)c2ccccc12 [Example 90]"
measuredresult = 63.5

[[record]]
molecule = "N=C(N)NN=C(c1c(-c2ccc(Cl)cc2)n(S(=O)(=O)c2ccc3ccccc3c2)c2ccccc12)C1CC1 [Example 94]"
measuredresult = 27.9


Just so you know, measured inhibition at 1 µM for COc1ccc(S(=O)(=O)n2cc(C(C)=NNC(=N)N)c3ccccc32)cc1 [Example 61] came out at 83.6

Just so you know, measured inhibition at 1 µM for CC(=NNC(=N)N)c1cn(S(=O)(=O)c2ccc3ccccc3c2)c2ccccc12 [Example 64] came out at 89.6

Just so you know, measured inhibition at 1 µM for COc1ccc(S(=O)(=O)n2c(-c3ccc(Cl)cc3)c(C(C)=NNC(=N)N)c3ccccc32)cc1OC [Example 98] came out at 53.3

###

- targetUnderTest: human cloned 5-HT6 receptors (Homo sapiens)
- Construct: expressed in transfected cells; host or cells: Hela cells
- methodDescription: 5-HT6 binding affinity, [3H]-LSD displacement in membranes of Hela cells
- conditionLabel: test compound dose 10 nM; [3H]-LSD 3.0 nM
Tag: Met if measured inhibition at 0.01 µM is not below 40%, Not met if it is.

[[record]]
smilesrepresentation = "CCCCS(=O)(=O)n1cc(C(=NNC(=N)N)C2CC2)c2cc(Cl)ccc21"
assignedcategory = "Met"

[[record]]
smilesrepresentation = "N=C(N)NN=C(c1cn(S(=O)(=O)c2ccc3ccccc3c2)c2ccccc12)C1CC1"
assignedcategory = "Not met"

[[record]]
smilesrepresentation = "N=C(N)NN=C(c1cn(S(=O)(=O)c2ccccc2)c2ccccc12)C1CC1"
assignedcategory = "Met"


Now turn to the next molecule.
Hi, just wondering whether CC(=NNC(=N)N)c1cn(S(=O)(=O)c2ccccc2)c2ccc(I)cc12 shows inhibition at 0.01 µM of 40% or higher.
Met
